Target: T1, 4H3133-AA
T1 chain: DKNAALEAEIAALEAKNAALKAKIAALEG
Experiment: two-hybrid library CCmax;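 further: natural log of median RNA to DNA barcode read ratio; higher means stronger binding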
Conditions: mean of both orientations
Quantity Kind: interaction score

• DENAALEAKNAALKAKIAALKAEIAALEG [4H1513-AA] = -1.2
• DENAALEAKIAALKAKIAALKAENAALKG [4H1388-AA] = -1.57
• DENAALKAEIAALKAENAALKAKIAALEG [4H1629-AA] = -1
• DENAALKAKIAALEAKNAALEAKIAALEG [4H1845-AA] = -0.676
• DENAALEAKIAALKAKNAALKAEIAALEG [4H1401-AA] = -0.677
• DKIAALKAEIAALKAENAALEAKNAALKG [4H2648-AA] = -0.651
• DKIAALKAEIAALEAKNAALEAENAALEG [4H2611-AA] = -1.77
